B1: Poly(rC)-binding protein 1, residues 278 to 350; numbered along this chain, Q15365 (parent)
chain: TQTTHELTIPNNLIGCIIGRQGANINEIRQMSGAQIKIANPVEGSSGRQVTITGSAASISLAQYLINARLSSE

Variants of: B1
protocol.details: abundance fitness (aPCA) (normalised: wild type 0, dead -1); higher = more abundant; growth selection in yeast, the domain comes from the species named
condition.notes: Homo sapiens
metric.name: abundance fitness
Numbers only.

[
  {
    "variant.identifier": "L65E",
    "observed": -0.191
  },
  {
    "variant.identifier": "I18F",
    "observed": -0.321
  },
  {
    "variant.identifier": "G15Y",
    "observed": -0.046
  },
  {
    "variant.identifier": "N67T",
    "observed": -0.148
  }
]

Look up abundance fitness: E6V
0.135
